# target entity: Tyrosine-protein kinase BTK (Homo sapiens, UniProt Q06187)
# Sequence (Q06187 whole entry): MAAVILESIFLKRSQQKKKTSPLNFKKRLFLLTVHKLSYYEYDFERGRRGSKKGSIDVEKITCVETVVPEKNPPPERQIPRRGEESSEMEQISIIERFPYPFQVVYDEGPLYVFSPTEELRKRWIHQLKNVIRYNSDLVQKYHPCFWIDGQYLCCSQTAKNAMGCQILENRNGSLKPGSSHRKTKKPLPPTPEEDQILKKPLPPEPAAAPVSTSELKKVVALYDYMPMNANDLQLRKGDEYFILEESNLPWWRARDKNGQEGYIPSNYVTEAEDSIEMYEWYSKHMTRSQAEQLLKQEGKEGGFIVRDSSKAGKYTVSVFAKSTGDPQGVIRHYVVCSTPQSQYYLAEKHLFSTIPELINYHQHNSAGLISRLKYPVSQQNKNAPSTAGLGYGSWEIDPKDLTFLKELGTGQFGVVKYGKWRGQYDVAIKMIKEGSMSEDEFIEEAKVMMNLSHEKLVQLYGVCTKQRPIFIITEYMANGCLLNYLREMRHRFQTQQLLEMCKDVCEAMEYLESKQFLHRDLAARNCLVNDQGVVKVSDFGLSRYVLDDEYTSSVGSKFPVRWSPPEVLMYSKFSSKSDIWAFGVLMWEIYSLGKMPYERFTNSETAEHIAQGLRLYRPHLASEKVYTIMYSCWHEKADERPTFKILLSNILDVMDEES
# assay summary: Inhibition of full-length recombinant human His-tagged BTK expressed in baculovirus expression system by Z'-LYTE assay
readout label: pIC50
FYI, pIC50 means -log10 of a concentration in mol per litre.

Cc1sc(C(=O)N[C@@H]2[C@H](N)CCCC2(F)F)cc1-c1cnn2cc(Cl)cnc12 = 4.89
Cn1cc(-c2cnc3c(-c4csc(C(=O)NCC(F)(F)F)c4)cnn3c2)cn1 = 6.44

Kindly consider the entry below.
Report pIC50 for O=C(NCC(F)(F)F)c1cc(-c2cnn3cc(-c4ccc(OCCN5CCCCC5)cc4)cnc23)cs1 please.
6.54

* * *

# assay summary: Clearance in Sprague-Dawley rat at 1 mL/kg, iv administered through catheter measured after 24 hrs by LC-MS/MS analysis
# Assay type: ADME, organism-based
# experimental parameters: in vivo
readout label: clearance (mL/min/kg)
A number alone suffices; assume mL/min/kg.

Cn1cc(-c2cnc3c(-c4csc(C(=O)NCCC(N)C(F)(F)F)c4)cnn3c2)cn1 (stereo not given) = 14

Give the measured clearance of Cc1sc(C(=O)N[C@@H]2[C@H](N)CCCC2(F)F)cc1-c1cnn2cc(Cl)cnc12 .
19

Dear colleague, I am looking for the recorded clearance of the following compound: Cn1cc(-c2cnc3c(-c4csc(C(=O)NCC(F)(F)F)c4)cnn3c2)cn1
7.4

So what's the measured clearance for this one? O=C(NCC(F)(F)F)c1cc(-c2cnn3cc(-c4ccc(OCCN5CCCCC5)cc4)cnc23)cs1
32

Entry Cn1cc(-c2cnc3c(-c4csc(C(=O)NCCC(N)C(F)F)c4)cnn3c2)cn1 (stereo not given) : reported clearance = ?
16.7

* * *

# maps each entry to its pIC50
# target entity: Mitogen-activated protein kinase 14 (Homo sapiens)
# Sequence (Q16539 whole entry): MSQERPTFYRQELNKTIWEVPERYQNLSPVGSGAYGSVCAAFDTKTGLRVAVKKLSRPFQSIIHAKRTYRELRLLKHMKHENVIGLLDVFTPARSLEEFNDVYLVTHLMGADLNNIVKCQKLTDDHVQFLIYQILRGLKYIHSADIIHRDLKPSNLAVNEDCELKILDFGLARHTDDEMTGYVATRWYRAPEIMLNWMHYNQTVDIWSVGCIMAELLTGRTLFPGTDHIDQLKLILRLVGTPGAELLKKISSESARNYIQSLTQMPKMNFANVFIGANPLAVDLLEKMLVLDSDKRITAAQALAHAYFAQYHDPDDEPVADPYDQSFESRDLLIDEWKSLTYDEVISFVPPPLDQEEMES
# assay summary: Inhibition of full-length recombinant human GST-tagged MAPK14 alpha expressed in Escherichia coli by Z'-LYTE assay
Please treat pIC50 as minus the base-10 logarithm of the molar concentration.

Example cases with answers are listed next.
O=C(NCC(F)(F)F)c1cc(-c2cnn3cc(-c4ccc(OCCN5CCCCC5)cc4)cnc23)cs1 = 5.92
Cn1cc(-c2cnc3c(-c4csc(C(=O)N[C@@H]5CCCC[C@@H]5N)c4)cnn3c2)cn1 (racemic) = 5.85

Now for the compound whose pIC50 we want.
Entry Cn1cc(-c2cnc3c(-c4csc(C(=O)NCC(F)(F)F)c4)cnn3c2)cn1 : reported pIC50 = ?
4.44

* * *

# target entity: Mitogen-activated protein kinase 9 (Homo sapiens)
# Sequence (P45984 whole entry): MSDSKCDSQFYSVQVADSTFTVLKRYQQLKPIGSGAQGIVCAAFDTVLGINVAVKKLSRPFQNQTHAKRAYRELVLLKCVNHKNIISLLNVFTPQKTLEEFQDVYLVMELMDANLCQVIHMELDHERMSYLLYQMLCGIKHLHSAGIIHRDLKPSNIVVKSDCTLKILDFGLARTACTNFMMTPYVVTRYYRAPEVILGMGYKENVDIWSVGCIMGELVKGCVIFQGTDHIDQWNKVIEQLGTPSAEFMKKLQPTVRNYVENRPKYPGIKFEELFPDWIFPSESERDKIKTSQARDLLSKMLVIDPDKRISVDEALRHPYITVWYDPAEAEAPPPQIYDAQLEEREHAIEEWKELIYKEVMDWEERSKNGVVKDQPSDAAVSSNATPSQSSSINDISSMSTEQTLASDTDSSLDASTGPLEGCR
# assay summary: Inhibition of full-length recombinant human His-tagged MAPK9 expressed in baculovirus expression system by Z'-LYTE assay
pIC50 reference
Just the number, please; pIC50 means minus log10 of the concentration in mol/L.

Use the examples below as a reference point.
Cc1sc(C(=O)N[C@@H]2[C@H](N)CCCC2(F)F)cc1-c1cnn2cc(Cl)cnc12 = 5.36
O=C(NCC(F)(F)F)c1cc(-c2cnn3cc(-c4ccc(OCCN5CCCCC5)cc4)cnc23)cs1 = 6.07
Cn1cc(-c2cnc3c(-c4csc(C(=O)NCC(F)(F)F)c4)cnn3c2)cn1 = 5.77

Return reported pIC50; argument: Cn1cc(-c2cnc3c(-c4csc(C(=O)N[C@@H]5CCCC[C@@H]5N)c4)cnn3c2)cn1 (racemic)
6.19

* * *

# target entity: Glycogen synthase kinase-3 beta (Homo sapiens, UniProt P49841)
# Sequence (P49841 whole entry): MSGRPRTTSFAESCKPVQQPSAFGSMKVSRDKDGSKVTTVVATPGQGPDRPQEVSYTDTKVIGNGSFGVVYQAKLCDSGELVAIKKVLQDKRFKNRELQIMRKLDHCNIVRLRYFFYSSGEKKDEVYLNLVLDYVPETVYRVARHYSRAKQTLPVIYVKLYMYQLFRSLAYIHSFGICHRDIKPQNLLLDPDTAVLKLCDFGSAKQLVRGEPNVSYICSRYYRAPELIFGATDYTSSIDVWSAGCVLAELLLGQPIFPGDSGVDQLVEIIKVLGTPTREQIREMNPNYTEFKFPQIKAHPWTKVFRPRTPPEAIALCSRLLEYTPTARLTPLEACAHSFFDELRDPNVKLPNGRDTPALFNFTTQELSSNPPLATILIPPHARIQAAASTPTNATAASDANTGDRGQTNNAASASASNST
# assay summary: Inhibition of full-length recombinant human His-tagged GSK3B expressed in baculovirus expression system by Z'-LYTE assay
readout label: pIC50
For clarity, pIC50 is expressed as the negative log10 of concentration in mol/L.

As a guide, the following entries are already answered.
Cc1sc(C(=O)N[C@@H]2[C@H](N)CCCC2(F)F)cc1-c1cnn2cc(Cl)cnc12 = 6.82
O=C(NCC(F)(F)F)c1cc(-c2cnn3cc(-c4ccc(OCCN5CCCCC5)cc4)cnc23)cs1 = 6.66
Cn1cc(-c2cnc3c(-c4csc(C(=O)N[C@@H]5CCCC[C@@H]5N)c4)cnn3c2)cn1 (racemic) = 7.64

Fill in the blank: the reported pIC50 of Cn1cc(-c2cnc3c(-c4csc(C(=O)NCC(F)(F)F)c4)cnn3c2)cn1 is ____.
7.08
